# maps each entry to its IC50 or EC50 (agonist or antagonist mode not specified)
Biological target: glucocorticoid receptor (Homo sapiens, UniProt P04150)
Construct: expressed in transfected cells
Sequence (P04150 524-758 limits assumed): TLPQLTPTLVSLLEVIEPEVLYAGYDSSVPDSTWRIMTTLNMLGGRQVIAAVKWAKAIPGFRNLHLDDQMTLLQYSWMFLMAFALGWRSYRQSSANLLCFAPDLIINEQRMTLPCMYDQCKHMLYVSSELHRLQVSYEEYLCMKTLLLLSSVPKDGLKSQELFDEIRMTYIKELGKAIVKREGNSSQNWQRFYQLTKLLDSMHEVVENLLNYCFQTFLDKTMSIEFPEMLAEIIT
Test: Agonistic mode of action on the glucocorticoid receptor (CHO-Gal4/GR luciferase reporter cell line)
Type: cell-based
Details: range class observed in the agonistic assay or the antagonistic assay (CHO-Gal4/GR reporter cells); table does not say which mode applies per example
readout_kind: IC50 or EC50 (agonist or antagonist mode not specified)

{"compound": "CCc1c[nH]c2c(-c3c(F)cc4c(c3F)-n3c(C)nnc3C(C)(C)N4)cc(F)cc12 [Example 43]", "target_entity": "glucocorticoid receptor (Homo sapiens, UniProt P04150)", "value_observed": "< 100 nM"}
{"compound": "Cc1c(-c2cccc3c2ccn3S(C)(=O)=O)c(OC(F)F)cc2c1-n1c(C)nnc1C(C)(C)N2 [Example 318]", "target_entity": "glucocorticoid receptor (Homo sapiens, UniProt P04150)", "value_observed": "100 to 1000 nM"}
{"compound": "Cc1nnc2n1-c1c(cc(OC(F)F)c(-c3cccc4[nH]ccc34)c1F)NC2(C)C [Example 297]", "target_entity": "glucocorticoid receptor (Homo sapiens, UniProt P04150)", "value_observed": "1000 to 15000 nM"}
{"compound": "COCCn1ccc2c(-c3c(Cl)cc4c(c3C)-n3c(C)nnc3C(C)(C)N4)cccc21 [Example 338]", "target_entity": "glucocorticoid receptor (Homo sapiens, UniProt P04150)", "value_observed": "100 to 1000 nM"}
{"compound": "Cc1cc(-c2c(F)cc3c(c2F)-n2c(C)nnc2C(C)(C)N3)c2ccn(S(C)(=O)=O)c2c1 [Example 492]", "target_entity": "glucocorticoid receptor (Homo sapiens, UniProt P04150)", "value_observed": "< 100 nM"}
{"compound": "Cc1nnc2n1-c1c(cc(OC(F)F)c(-c3cc(F)cc4c3ccn4S(C)(=O)=O)c1F)NC2(C)C [Example 268]", "target_entity": "glucocorticoid receptor (Homo sapiens, UniProt P04150)", "value_observed": "1000 to 15000 nM"}
{"compound": "Cc1nnc2n1-c1c(cc(Cl)c(-c3cc(F)cc4c3cnn4CC(F)F)c1F)NC2(C)C [Example 508]", "target_entity": "glucocorticoid receptor (Homo sapiens, UniProt P04150)", "value_observed": "100 to 1000 nM"}
{"compound": "COc1cc2c(c(C(F)(F)F)c1-c1cc(F)cc3c1cnn3S(C)(=O)=O)-n1c(C)nnc1C(C)(C)N2 [Example 376]", "target_entity": "glucocorticoid receptor (Homo sapiens, UniProt P04150)", "value_observed": "1000 to 15000 nM"}
{"compound": "Cc1cc2c(-c3c(F)cc4c(c3F)-n3c(C)nnc3C(C)(C)N4)cc(F)cc2[nH]1 [Example 5]", "target_entity": "glucocorticoid receptor (Homo sapiens, UniProt P04150)", "value_observed": "100 to 1000 nM"}
{"compound": "CC(=O)n1ccc2c(-c3c(F)cc4c(c3F)-n3c(C)nnc3C(C)(C)N4)cccc21 [Example 20]", "target_entity": "glucocorticoid receptor (Homo sapiens, UniProt P04150)", "value_observed": "100 to 1000 nM"}
{"compound": "COCCn1ccc2c(-c3c(OC)cc4c(c3C(F)(F)F)-n3c(C)nnc3C(C)(C)N4)cccc21 [Example 334]", "target_entity": "glucocorticoid receptor (Homo sapiens, UniProt P04150)", "value_observed": "1000 to 15000 nM"}
{"compound": "Cc1nnc2n1-c1c(cc(F)c(-c3cc(Cl)cc4[nH]ccc34)c1F)NC2(C)C [Example 511]", "target_entity": "glucocorticoid receptor (Homo sapiens, UniProt P04150)", "value_observed": "< 100 nM"}
{"compound": "CC#CCc1nnc2n1-c1c(cc(F)c(-c3cc(F)cc4c(C)c[nH]c34)c1F)NC2(C)C [Example 69]", "target_entity": "glucocorticoid receptor (Homo sapiens, UniProt P04150)", "value_observed": "< 100 nM"}
{"compound": "COc1c(-c2cc(F)cc3c(C)c[nH]c23)c(F)cc2c1-n1c(C)nnc1C(C)(C)N2 [Example 249]", "target_entity": "glucocorticoid receptor (Homo sapiens, UniProt P04150)", "value_observed": "< 100 nM"}
{"compound": "Cc1nnc2n1-c1c(cc(F)c(-c3ccc(C#N)c4[nH]ccc34)c1C(F)(F)F)NC2(C)C [Example 531]", "target_entity": "glucocorticoid receptor (Homo sapiens, UniProt P04150)", "value_observed": "100 to 1000 nM"}
{"compound": "COc1c(-c2cccc3c2ccn3C)c(F)cc2c1-n1c(C)nnc1C(C)(C)N2 [Example 487]", "target_entity": "glucocorticoid receptor (Homo sapiens, UniProt P04150)", "value_observed": "100 to 1000 nM"}
{"compound": "Cc1c[nH]c2c(-c3c(F)cc4c(c3F)-n3c(Cc5cccnc5)nnc3C(C)(C)N4)cc(F)cc12 [Example 73]", "target_entity": "glucocorticoid receptor (Homo sapiens, UniProt P04150)", "value_observed": "100 to 1000 nM"}
{"compound": "Cc1cc2c(c(F)c1-c1cc(F)cc3c(C)c[nH]c13)-n1c(C)nnc1C(C)(C)N2 [Example 364]", "target_entity": "glucocorticoid receptor (Homo sapiens, UniProt P04150)", "value_observed": "100 to 1000 nM"}
{"compound": "CCS(=O)(=O)n1ncc2c(-c3c(F)cc4c(c3C(F)(F)F)-n3c(C)nnc3C(C)(C)N4)cc(F)cc21 [Example 448]", "target_entity": "glucocorticoid receptor (Homo sapiens, UniProt P04150)", "value_observed": "100 to 1000 nM"}
{"compound": "CCc1c(-c2cc(F)cc3c2ccn3CCO)c(F)cc2c1-n1c(C)nnc1C(C)(C)N2 [Example 44]", "target_entity": "glucocorticoid receptor (Homo sapiens, UniProt P04150)", "value_observed": "100 to 1000 nM"}
{"compound": "CCc1nnc2n1-c1c(cc(F)c(-c3c(F)ccc4[nH]ccc34)c1C)NC2(C)C [Example 244]", "target_entity": "glucocorticoid receptor (Homo sapiens, UniProt P04150)", "value_observed": "1000 to 15000 nM"}
{"compound": "COc1cc2c(c(C)c1-c1cc(F)cc3c(C)c[nH]c13)-n1c(C)nnc1C(C)(C)N2 [Example 345]", "target_entity": "glucocorticoid receptor (Homo sapiens, UniProt P04150)", "value_observed": "100 to 1000 nM"}
{"compound": "Cc1nnc2n1-c1c(cc(F)c(-c3cccc4c3cnn4C(=O)OC(C)(C)C)c1F)NC2(C)C [Example 238]", "target_entity": "glucocorticoid receptor (Homo sapiens, UniProt P04150)", "value_observed": "100 to 1000 nM"}
{"compound": "Cc1c(-c2cc(F)cc3c2cnn3S(C)(=O)=O)c(Cl)cc2c1-n1c(C)nnc1C(C)(C)N2 [Example 347]", "target_entity": "glucocorticoid receptor (Homo sapiens, UniProt P04150)", "value_observed": "100 to 1000 nM"}
{"compound": "Cc1nnc2n1-c1c(cc(F)c(-c3cccc4c3ccn4CC(F)F)c1C(F)F)NC2(C)C [Example 398]", "target_entity": "glucocorticoid receptor (Homo sapiens, UniProt P04150)", "value_observed": "100 to 1000 nM"}
{"compound": "Cc1c(-c2cc(F)cc3c(C)c[nH]c23)c(Cl)cc2c1-n1c(C)nnc1C(C)(C)N2 [Example 363]", "target_entity": "glucocorticoid receptor (Homo sapiens, UniProt P04150)", "value_observed": "< 100 nM"}
{"compound": "Cc1cc(-c2c(F)cc3c(c2C(F)(F)F)-n2c(C)nnc2C(C)(C)N3)c2ccn(S(C)(=O)=O)c2c1 [Example 476]", "target_entity": "glucocorticoid receptor (Homo sapiens, UniProt P04150)", "value_observed": "100 to 1000 nM"}
{"compound": "COCCn1ccc2c(-c3c(Cl)cc4c(c3F)-n3c(C)nnc3C(C)(C)N4)cccc21 [Example 280]", "target_entity": "glucocorticoid receptor (Homo sapiens, UniProt P04150)", "value_observed": "1000 to 15000 nM"}
{"compound": "Cc1cc(-c2c(F)cc3c(c2C)-n2c(C)nnc2C(C)(C)N3)c2ccn(S(C)(=O)=O)c2c1 [Example 493]", "target_entity": "glucocorticoid receptor (Homo sapiens, UniProt P04150)", "value_observed": "< 100 nM"}
{"compound": "Cc1nnc2n1-c1c(cc(F)c(-c3cccc4c3cnn4S(C)(=O)=O)c1C(F)F)NC2(C)C [Example 382]", "target_entity": "glucocorticoid receptor (Homo sapiens, UniProt P04150)", "value_observed": "1000 to 15000 nM"}
{"compound": "Cc1c(-c2cccc3c2ccn3CC(F)F)c(Cl)cc2c1-n1c(C)nnc1C(C)(C)N2 [Example 327]", "target_entity": "glucocorticoid receptor (Homo sapiens, UniProt P04150)", "value_observed": "100 to 1000 nM"}
